tested_on: human recombinant norepinephrine transporter (Homo sapiens, UniProt P23975)
Construct: expressed in transfected cells; host or cells: MDCK
Sequence (P23975 whole entry): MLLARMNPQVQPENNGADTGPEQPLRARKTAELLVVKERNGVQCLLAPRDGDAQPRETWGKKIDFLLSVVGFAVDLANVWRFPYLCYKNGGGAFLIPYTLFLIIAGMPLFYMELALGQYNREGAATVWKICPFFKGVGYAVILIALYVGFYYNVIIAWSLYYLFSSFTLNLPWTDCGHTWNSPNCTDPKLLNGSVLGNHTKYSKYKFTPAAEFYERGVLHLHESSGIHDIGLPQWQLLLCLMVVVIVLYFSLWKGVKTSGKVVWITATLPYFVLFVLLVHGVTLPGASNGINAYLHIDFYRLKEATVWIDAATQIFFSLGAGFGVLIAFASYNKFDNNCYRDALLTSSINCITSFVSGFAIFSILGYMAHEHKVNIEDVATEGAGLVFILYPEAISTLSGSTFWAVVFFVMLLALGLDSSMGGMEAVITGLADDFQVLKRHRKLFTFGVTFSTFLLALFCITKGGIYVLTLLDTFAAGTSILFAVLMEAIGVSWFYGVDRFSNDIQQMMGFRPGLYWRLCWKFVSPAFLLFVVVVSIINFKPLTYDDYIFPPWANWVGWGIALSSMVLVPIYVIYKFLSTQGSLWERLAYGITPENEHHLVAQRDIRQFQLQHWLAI
experiment_summary: Norepinephrine transporter reuptake inhibition assay
Format: cell-based
conditions: 100 nM; MDCK cells with human norepinephrine transporter; [3H]Norepinephrine uptake; read-out: Inhibition % at 100 nM NE reuptake
Experimental: Norepinephrine Transporter Reuptake Inhibition Assay Norepinephrine transporter reuptake inhibition assay used the method described by Galli A. et al., J Exp Biol., 1995, 198, p 2197˜2212. MDCK cells with stably expressed human recombinant norepinephrine transporter were plated one day. […] A lysate was obtained from solubilized cells and the filtered lysate was counted to determine [^3H]Norepinephrine uptake. […]
inhibition at 0.1 µM values, listed per item
measured_parameter: inhibition at 0.1 µM (%)

> print(dat)
                                   compound  result.number
1  Fc1ccc2cc([C@H]([C@H]3CCCNC3)n3ncnn3)ccc2c1 [Example 71]             46
2  c1ccc(-c2nnn([C@H](c3ccc4ccccc4c3)[C@H]3CCCNC3)n2)cc1 [Example 75]             -1
3  COc1ccc2cc([C@H]([C@H]3CCCNC3)n3ncnn3)ccc2c1 [Example 35]             72
4  Fc1ccc2cc([C@@H]([C@H]3CCCNC3)n3ncnn3)ccc2c1 [Example 72]              6
5  Fc1ccc2cc([C@H]([C@@H]3CCCNC3)n3ncnn3)ccc2c1 [Example 84]              5
6  Clc1ccc2cc([C@H]([C@H]3CCCNC3)n3ncnn3)ccc2c1 [Example 68]             57
7  Clc1ccc2cc([C@@H]([C@H]3CCCNC3)n3ncnn3)ccc2c1 [Example 70]             14
8  Cc1nnn([C@H](c2ccc3ccccc3c2)[C@H]2CCCNC2)n1 [Example 10]             87
9  Cc1nnn([C@@H](c2ccc3ccccc3c2)[C@@H]2CCCNC2)n1 [Example 12]             90

* * *

tested_on: human serotonin transporter (Homo sapiens)
Construct: expressed in transfected cells; host or cells: HEK-293
Sequence (P31645 whole entry): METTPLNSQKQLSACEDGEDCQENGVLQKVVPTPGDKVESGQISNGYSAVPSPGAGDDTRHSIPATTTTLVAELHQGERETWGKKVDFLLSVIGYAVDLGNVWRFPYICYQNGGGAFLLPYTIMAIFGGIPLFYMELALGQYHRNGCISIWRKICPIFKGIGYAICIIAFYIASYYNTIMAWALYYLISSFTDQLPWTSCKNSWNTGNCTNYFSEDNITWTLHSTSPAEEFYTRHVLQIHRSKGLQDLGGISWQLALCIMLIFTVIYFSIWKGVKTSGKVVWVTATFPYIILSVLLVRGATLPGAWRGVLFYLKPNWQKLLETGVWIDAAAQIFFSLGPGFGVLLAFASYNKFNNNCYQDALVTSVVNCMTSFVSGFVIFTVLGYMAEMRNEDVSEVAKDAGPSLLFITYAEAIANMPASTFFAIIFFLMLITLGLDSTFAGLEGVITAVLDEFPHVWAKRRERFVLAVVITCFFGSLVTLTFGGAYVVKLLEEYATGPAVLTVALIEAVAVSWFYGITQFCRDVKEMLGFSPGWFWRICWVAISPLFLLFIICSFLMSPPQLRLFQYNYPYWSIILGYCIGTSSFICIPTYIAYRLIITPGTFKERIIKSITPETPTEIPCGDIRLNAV
experiment_summary: Serotonin transporter reuptake inhibition assay
Type: cell-based
conditions: HEK293; 100 nM; HEK-293 cells with human serotonin transporter; [3H]Serotonin uptake; read-out: Inhibition % at 100 nM 5-HT reuptake
measured_parameter: inhibition at 0.1 µM

> print(dat)
                           substance.smiles  result
1  c1ccc2cc([C@H]([C@H]3CCCNC3)n3cncn3)ccc2c1     87%
2  Clc1ccc([C@@H]([C@@H]2CCCNC2)n2ncnn2)cc1Cl     75%
3  c1ccc2cc([C@H]([C@H]3CCCNC3)n3ncnn3)ccc2c1     98%

* * *

Test system: mice
experiment_summary: Forced swimming test in mice (FST)
Type: in vivo
conditions: Mus musculus, 0.5 h, 30ip, 30 min after administration, vs control group, read-out: Reduction % at 30ip (duration of immobility)
Binary call on inhibition in vivo at 30 mg/kg: Criterion met from 30% upward, Criterion not met beneath that.

> print(dat)
                           substance.smiles  tested.on     discrete.label
1  Fc1ccc2cc([C@@H]([C@@H]3CCCNC3)n3ncnn3)ccc2c1       mice      Criterion met
2  Fc1ccc2cc([C@H]([C@H]3CCCNC3)n3ncnn3)ccc2c1       mice      Criterion met
3  Cc1ccc2cc([C@@H]([C@H]3CCCNC3)n3ncnn3)ccc2c1       mice  Criterion not met
4  c1ccc2cc([C@@H]([C@@H]3CCCNC3)n3ncnn3)ccc2c1       mice      Criterion met
5  COc1ccc2cc([C@H]([C@H]3CCCNC3)n3ncnn3)ccc2c1       mice      Criterion met
6  Clc1ccc2cc([C@@H]([C@@H]3CCCNC3)n3ncnn3)ccc2c1       mice  Criterion not met

* * *

tested_on: human serotonin transporter (Homo sapiens)
Construct: expressed in transfected cells; host or cells: HEK-293
experiment_summary: Serotonin transporter reuptake inhibition assay
Type: cell-based
conditions: HEK293; 100 nM; HEK-293 cells with human serotonin transporter; [3H]Serotonin uptake; read-out: Inhibition % at 100 nM 5-HT reuptake
measured_parameter: inhibition at 0.1 µM (%)

> print(dat)
                           substance.smiles    measured.parameter  result.number
1  Cc1nnn([C@@H](c2ccc3ccccc3c2)[C@@H]2CCCNC2)n1  inhibition at 0.1 µM             83
2  c1ccc2cc([C@@H]([C@@H]3CCCNC3)n3ncnn3)ccc2c1  inhibition at 0.1 µM             81
3  Clc1ccc2cc([C@@H]([C@H]3CCCNC3)n3ncnn3)ccc2c1  inhibition at 0.1 µM             95
4  Fc1ccc2cc([C@H]([C@H]3CCCNC3)n3ncnn3)ccc2c1  inhibition at 0.1 µM             92
5  COc1ccc2cc([C@H]([C@H]3CCCNC3)n3ncnn3)ccc2c1  inhibition at 0.1 µM             76
6  Clc1ccc2cc([C@@H]([C@@H]3CCCNC3)n3ncnn3)ccc2c1  inhibition at 0.1 µM             97
7  Fc1ccc2cc([C@H]([C@@H]3CCCNC3)n3ncnn3)ccc2c1  inhibition at 0.1 µM             44
8  c1ccc(-c2nnn([C@H](c3ccc4ccccc4c3)[C@H]3CCCNC3)n2)cc1  inhibition at 0.1 µM             86
